# reported Bliss excess; entries follow
# Test system: SAT (Head and Neck Carcinoma)
# METHOD: Bliss excess, mean over the matrix (fraction); higher = more synergy
MEASURE: Bliss excess

INSERT INTO results (molecule, reading) VALUES
  ('COc1nnc2ccc(N3CCC(c4ccc(OCCN5CCN(C)C(=O)[C@H]5C)cc4)CC3)nn12 [AZD5153] + C=CCn1c(=O)c2cnc(Nc3ccc(N4CCN(C)CC4)cc3)nc2n1-c1cccc(C(C)(C)O)n1 [AZD1775] (first compound max 1 µM, partner max 1 µM)', -0.0305),
  ('CC1(C)CCC(CN2CCN(c3ccc(C(=O)NS(=O)(=O)c4ccc(NCC5CCOCC5)c([N+](=O)[O-])c4)c(Oc4cnc5[nH]ccc5c4)c3)CC2)=C(c2ccc(Cl)cc2)C1 [Venetoclax] + C1CN(CCC1(C(=O)N[C@@H](CCO)C2=CC=C(C=C2)Cl)N)C3=NC=NC4=C3C=CN4 [Capivasertib] (first compound max 1 µM, 7x7, partner max 3 µM)', -0.0422);

###

# System: SUP-M2 (T-Cell Non-Hodgkin's Lymphoma)
# METHOD: combination Emax (second highest fraction inhibited in the dose matrix, 72 h); higher = more inhibition; extreme values may be limits of the assay
MEASURE: combination Emax

INSERT INTO results (molecule, reading) VALUES
  ('COc1nnc2ccc(N3CCC(c4ccc(OCCN5CCN(C)C(=O)[C@H]5C)cc4)CC3)nn12 [AZD5153] + C[C@@H]1COCCN1C2=NC(=NC(=C2)C3(CC3)[S@](=N)(=O)C)C4=C5C=CNC5=NC=C4 [AZD6738] (first compound max 1 µM, 7x7, partner max 10 µM)', 1),
  ('Cn1cnc2c(F)c(Nc3ccc(Br)cc3Cl)c(C(=O)NOCCO)cc21 [Selumetinib] + C[C@@H]1COCCN1C2=NC(=NC(=C2)C3(CC3)[S@](=N)(=O)C)C4=C5C=CNC5=NC=C4 [AZD6738] (first compound max 10 µM, 7x7, partner max 10 µM)', 1),
  ('CC(=O)Nc1cccc(-n2c(=O)n(C3CC3)c(=O)c3c(Nc4ccc(I)cc4F)n(C)c(=O)c(C)c32)c1 [Trametinib] + Cc1nc(-c2cn3c(n2)-c2ccc(-c4cnn(C(C)(C)C(N)=O)c4)cc2OCC3)n(C(C)C)n1 [Taselisib] (first compound max 1 µM, 7x7, partner max 10 µM)', 0.534),
  ('Cc1nc(Nc2ncc(C(=O)Nc3c(C)cccc3Cl)s2)cc(N2CCN(CCO)CC2)n1 [Dasatinib] + CC(=O)Nc1cccc(-n2c(=O)n(C3CC3)c(=O)c3c(Nc4ccc(I)cc4F)n(C)c(=O)c(C)c32)c1 [Trametinib] (first compound max 2 µM, 7x7, partner max 1 µM)', 0.126),
  ('CN(CCO)CC[C@H](CSc1ccccc1)Nc1ccc(S(=O)(=O)NC(=O)c2ccc(N3CCC([C@@H](O)c4ccccc4-c4ccc(Cl)cc4)CC3)cc2)cc1S(=O)(=O)C(F)(F)F [AZD4320] + Cn1cnc2c(F)c(Nc3ccc(Br)cc3Cl)c(C(=O)NOCCO)cc21 [Selumetinib] (first compound max 1 µM, 7x7, partner max 3 µM)', 0.959);

###

# Tested on: SK-CO-1 (Colorectal Carcinoma)
# METHOD: combination Emax (second highest fraction inhibited in the dose matrix, 72 h); higher = more inhibition; extreme values may be limits of the assay
Decide using combination Emax: a value greater than or equal to 0.6 is 1 (yes), a smaller one is 0 (no).

INSERT INTO assay_data (molecule, category) VALUES
  ('Cc1cc2ncnn2cc1Nc1ncc2c(n1)n(C1CCOCC1)c(=O)n2C [AZD7648] + CCN(CCO)CCCOc1ccc2c(Nc3cc(CC(=O)Nc4cccc(F)c4)[nH]n3)ncnc2c1 [AZD2811] (first compound max 10 µM, 7x7, partner max 1 µM)', '0 (no)'),
  ('COc1cccc(OCCCN)c1-c1cc(Nc2cnc(C#N)cn2)n[nH]1 [Prexasertib] + O=C(c1cc(Cc2n[nH]c(=O)c3ccccc23)ccc1F)N1CCN(C(=O)C2CC2)CC1 [Olaparib] (first compound max 1 µM, 7x7, partner max 10 µM)', '1 (yes)'),
  ('CC(=O)c1c(C)c2cnc(Nc3ccc(N4CCNCC4)cn3)nc2n(C2CCCC2)c1=O [Palbociclib] + Cc1c2c(nn1C)CSCc1cc(n(C)n1)CSc1cc(c3ccccc3c1)OCCCc1c(C(=O)O)n(C)c3c-2c(Cl)ccc13 [AZD5991] (first compound max 10 µM, 7x7, partner max 1 µM)', '0 (no)'),
  ('Cc1cc2ncnn2cc1Nc1ncc2c(n1)n(C1CCOCC1)c(=O)n2C [AZD7648] + C=CCn1c(=O)c2cnc(Nc3ccc(N4CCN(C)CC4)cc3)nc2n1-c1cccc(C(C)(C)O)n1 [AZD1775] (first compound max 10 µM, partner max 1 µM)', '0 (no)'),
  ('CC(=O)Nc1cccc(-n2c(=O)n(C3CC3)c(=O)c3c(Nc4ccc(I)cc4F)n(C)c(=O)c(C)c32)c1 [Trametinib] + Cc1nc(-c2cn3c(n2)-c2ccc(-c4cnn(C(C)(C)C(N)=O)c4)cc2OCC3)n(C(C)C)n1 [Taselisib] (first compound max 1 µM, 7x7, partner max 10 µM)', '1 (yes)'),
  ('CC1(C)CCC(CN2CCN(c3ccc(C(=O)NS(=O)(=O)c4ccc(NCC5CCOCC5)c([N+](=O)[O-])c4)c(Oc4cnc5[nH]ccc5c4)c3)CC2)=C(c2ccc(Cl)cc2)C1 [Venetoclax] + Cc1cc2ncnn2cc1Nc1ncc2c(n1)n(C1CCOCC1)c(=O)n2C [AZD7648] (first compound max 1 µM, 7x7, partner max 10 µM)', '0 (no)');

###

# Test system: NCI-H1963 (Small Cell Lung Carcinoma)
# METHOD: Bliss excess, mean over the matrix (fraction); higher = more synergy
Decide using Bliss excess: a value greater than or equal to 0.01 is Satisfied, a smaller one is Not satisfied.

INSERT INTO assay_data (compound, category) VALUES
  ('CN(C)CCCOc1ccc(-c2ccc3ncc4c(c3c2)n(C2CCOCC2)c(=O)n4C)cn1 [AZD0156] + C[C@@H]1COCCN1C2=NC(=NC(=C2)C3(CC3)[S@](=N)(=O)C)C4=C5C=CNC5=NC=C4 [AZD6738] (first compound max 1 µM, 7x7, partner max 10 µM)', 'Not satisfied'),
  ('CC1(C)CCC(CN2CCN(c3ccc(C(=O)NS(=O)(=O)c4ccc(NCC5CCOCC5)c([N+](=O)[O-])c4)c(Oc4cnc5[nH]ccc5c4)c3)CC2)=C(c2ccc(Cl)cc2)C1 [Venetoclax] + C1CN(CCC1(C(=O)N[C@@H](CCO)C2=CC=C(C=C2)Cl)N)C3=NC=NC4=C3C=CN4 [Capivasertib] (first compound max 1 µM, 7x7, partner max 3 µM)', 'Not satisfied'),
  ('Cc1nc(Nc2ncc(C(=O)Nc3c(C)cccc3Cl)s2)cc(N2CCN(CCO)CC2)n1 [Dasatinib] + CC(=O)Nc1cccc(-n2c(=O)n(C3CC3)c(=O)c3c(Nc4ccc(I)cc4F)n(C)c(=O)c(C)c32)c1 [Trametinib] (first compound max 2 µM, 7x7, partner max 1 µM)', 'Not satisfied'),
  ('CN(CCO)CC[C@H](CSc1ccccc1)Nc1ccc(S(=O)(=O)NC(=O)c2ccc(N3CCC([C@@H](O)c4ccccc4-c4ccc(Cl)cc4)CC3)cc2)cc1S(=O)(=O)C(F)(F)F [AZD4320] + C[C@@H]1COCCN1C2=NC(=NC(=C2)C3(CC3)[S@](=N)(=O)C)C4=C5C=CNC5=NC=C4 [AZD6738] (first compound max 1 µM, 7x7, partner max 10 µM)', 'Satisfied'),
  ('COc1cccc(OCCCN)c1-c1cc(Nc2cnc(C#N)cn2)n[nH]1 [Prexasertib] + C[C@@H]1COCCN1C2=NC(=NC(=C2)C3(CC3)[S@](=N)(=O)C)C4=C5C=CNC5=NC=C4 [AZD6738] (first compound max 1 µM, 7x7, partner max 10 µM)', 'Not satisfied'),
  ('CN(CCO)CC[C@H](CSc1ccccc1)Nc1ccc(S(=O)(=O)NC(=O)c2ccc(N3CCC([C@@H](O)c4ccccc4-c4ccc(Cl)cc4)CC3)cc2)cc1S(=O)(=O)C(F)(F)F [AZD4320] + C=CCn1c(=O)c2cnc(Nc3ccc(N4CCN(C)CC4)cc3)nc2n1-c1cccc(C(C)(C)O)n1 [AZD1775] (first compound max 1 µM, partner max 1 µM)', 'Satisfied'),
  ('COc1nnc2ccc(N3CCC(c4ccc(OCCN5CCN(C)C(=O)[C@H]5C)cc4)CC3)nn12 [AZD5153] + Cn1cnc2c(F)c(Nc3ccc(Br)cc3Cl)c(C(=O)NOCCO)cc21 [Selumetinib] (first compound max 1 µM, 7x7, partner max 10 µM)', 'Not satisfied'),
  ('Cc1c2c(nn1C)CSCc1cc(n(C)n1)CSc1cc(c3ccccc3c1)OCCCc1c(C(=O)O)n(C)c3c-2c(Cl)ccc13 [AZD5991] + Cn1cnc2c(F)c(Nc3ccc(Br)cc3Cl)c(C(=O)NOCCO)cc21 [Selumetinib] (first compound max 1 µM, 7x7, partner max 3 µM)', 'Satisfied'),
  ('NC1(C(=O)N[C@@H](CCO)c2ccc(Cl)cc2)CCN(c2ncnc3[nH]ccc23)CC1 [Capivasertib] + CC(=O)c1c(C)c2cnc(Nc3ccc(N4CCNCC4)cn3)nc2n(C2CCCC2)c1=O [Palbociclib] (first compound max 10 µM, 7x7, partner max 10 µM)', 'Not satisfied'),
  ('COc1nnc2ccc(N3CCC(c4ccc(OCCN5CCN(C)C(=O)[C@H]5C)cc4)CC3)nn12 [AZD5153] + Cc1c2c(nn1C)CSCc1cc(n(C)n1)CSc1cc(c3ccccc3c1)OCCCc1c(C(=O)O)n(C)c3c-2c(Cl)ccc13 [AZD5991] (first compound max 1 µM, 7x7, partner max 1 µM)', 'Satisfied'),
  ('CC1(C)CCC(CN2CCN(c3ccc(C(=O)NS(=O)(=O)c4ccc(NCC5CCOCC5)c([N+](=O)[O-])c4)c(Oc4cnc5[nH]ccc5c4)c3)CC2)=C(c2ccc(Cl)cc2)C1 [Venetoclax] + CCN(CCO)CCCOc1ccc2c(Nc3cc(CC(=O)Nc4cccc(F)c4)[nH]n3)ncnc2c1 [AZD2811] (first compound max 1 µM, 7x7, partner max 1 µM)', 'Satisfied'),
  ('Cc1cc2ncnn2cc1Nc1ncc2c(n1)n(C1CCOCC1)c(=O)n2C [AZD7648] + CCN(CCO)CCCOc1ccc2c(Nc3cc(CC(=O)Nc4cccc(F)c4)[nH]n3)ncnc2c1 [AZD2811] (first compound max 10 µM, 7x7, partner max 1 µM)', 'Not satisfied'),
  ('Cc1cc2ncnn2cc1Nc1ncc2c(n1)n(C1CCOCC1)c(=O)n2C [AZD7648] + C[C@@H]1COCCN1C2=NC(=NC(=C2)C3(CC3)[S@](=N)(=O)C)C4=C5C=CNC5=NC=C4 [AZD6738] (first compound max 10 µM, 7x7, partner max 10 µM)', 'Satisfied');
